# EXPERIMENTAL_TARGET: T1, mouse CTLA-4 (mouse, UniProt P09793 36-161, limits assumed)
# T1 construct: construct not described; also called murine CTLA-4; the mouse protein
# T1 sequence (P09793 36-161 limits assumed): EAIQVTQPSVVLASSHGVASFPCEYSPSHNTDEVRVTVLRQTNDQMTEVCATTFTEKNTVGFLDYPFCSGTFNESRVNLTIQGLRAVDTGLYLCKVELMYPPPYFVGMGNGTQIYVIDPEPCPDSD
# EXPERIMENT_SUMMARY: avidity ELISA, mouse CTLA-4 coated, antibody titrated
Measured EC50, listed per entry for reference.
// note: answer is a bare numeric in nM

Reference set, count: 3
1) anti-CTLA-4 antibody clone 2C8_gI, IgG1 (antibody, V domains shown, IgG1; also called germline version of the antibody) VH: QVQLQQSGPGLVKPSQTLSLTCAISGDSVSSNTAAWNWIRQSPSRGLEWLGRTYYRSKWYSDYGLSVKSRITINPDTSKNQFSLQLNSVTPEDTAVYYCAREGSGGTLIYWGQGTLVTVSS VL: DIQMTQSPSSVSASVGDRVTITCRATQGISSWLAWYQQKPGKAPKLLIYAASSLQSGVPSRFSGSGSGTDFTLTISSLQPEDFATYYCQQANTLPLFTFGPGTKVDIK :: 77.1
2) 2C8 IgG4 (antibody, V domains shown, IgG4 format; also called IgG4 version of 2C8) VH: QVQLQQSGPGLVKPSQTLSLTCAISGDTVSSNTAAWNWIRQSPSRGLEWLGRTYYRSKWYSDYGLSVKSRMTINADTSKNQVSLHLNSVTPEDTAVYYCAREGSGGTLIYWGQGTLVTVSS VL: DIQLTQSPSSVSASVGDRVTITCRATQGISSWLAWYQQKPGKAPKLLIYAASSLQSGVPSRFSGSGSGTEFTLTISSLQPEDFATYYCQQANTLPLFTFGPGTKVDIK :: 20.9
3) 2C8 IgG1 with LALA mutation (antibody, V domains shown, also called 2C8 with LALA mutation; 2C8 with the mutation) VH: QVQLQQSGPGLVKPSQTLSLTCAISGDTVSSNTAAWNWIRQSPSRGLEWLGRTYYRSKWYSDYGLSVKSRMTINADTSKNQVSLHLNSVTPEDTAVYYCAREGSGGTLIYWGQGTLVTVSS VL: DIQLTQSPSSVSASVGDRVTITCRATQGISSWLAWYQQKPGKAPKLLIYAASSLQSGVPSRFSGSGSGTEFTLTISSLQPEDFATYYCQQANTLPLFTFGPGTKVDIK :: 8

anti-CTLA-4 antibody clone 2C8, human IgG1 (antibody, V domains shown, also called 2C8 IgG; 2C8 IgG1) VH: QVQLQQSGPGLVKPSQTLSLTCAISGDTVSSNTAAWNWIRQSPSRGLEWLGRTYYRSKWYSDYGLSVKSRMTINADTSKNQVSLHLNSVTPEDTAVYYCAREGSGGTLIYWGQGTLVTVSS VL: DIQLTQSPSSVSASVGDRVTITCRATQGISSWLAWYQQKPGKAPKLLIYAASSLQSGVPSRFSGSGSGTEFTLTISSLQPEDFATYYCQQANTLPLFTFGPGTKVDIK yielded EC50 of 4.9
